study target: T1, human GPC3 (human, UniProt P51654 25-563)
T1 construct: range 25-563; soluble analyte; also called soluble human GPC3; glypican 3
T1 sequence (P51654 25-563 limits assumed): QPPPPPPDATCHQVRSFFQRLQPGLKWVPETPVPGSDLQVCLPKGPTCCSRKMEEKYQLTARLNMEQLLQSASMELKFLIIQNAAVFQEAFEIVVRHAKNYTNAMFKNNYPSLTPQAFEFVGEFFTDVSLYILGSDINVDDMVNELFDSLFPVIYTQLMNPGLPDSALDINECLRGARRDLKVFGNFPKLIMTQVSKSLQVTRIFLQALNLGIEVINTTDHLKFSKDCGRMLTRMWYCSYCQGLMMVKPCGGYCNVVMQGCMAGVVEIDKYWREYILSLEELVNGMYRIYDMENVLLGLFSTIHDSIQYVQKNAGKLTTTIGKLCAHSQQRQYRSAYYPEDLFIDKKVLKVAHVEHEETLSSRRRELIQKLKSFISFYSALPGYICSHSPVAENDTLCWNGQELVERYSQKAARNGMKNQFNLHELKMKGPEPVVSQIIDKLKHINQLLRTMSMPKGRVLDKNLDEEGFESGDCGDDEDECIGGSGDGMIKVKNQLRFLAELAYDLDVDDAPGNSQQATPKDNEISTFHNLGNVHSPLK
assay overview: SPR
Kd values for the binders below.
Respond with the figure and its unit, in that order.

Here is how some binders turned out for Kd.
binder	result
H0610-G1dh/none-Hi-Kn010G3/L0213-k0 (antibody, V domains shown, one-arm) VH: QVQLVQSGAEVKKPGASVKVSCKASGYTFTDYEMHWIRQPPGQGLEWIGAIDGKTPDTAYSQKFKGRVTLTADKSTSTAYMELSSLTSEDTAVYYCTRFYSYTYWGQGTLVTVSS VL: DIVMTQSPLSLPVTPGEPASISCRSSQSPVHSNRNTYIHWYQQKPGQAPRLLIYKVSNRFRGVPDRFSGSGSGTDFTLKISRVEAEDVGVYYCGQGTQVPYTFGQGTKLEIK	1.25 nM
H0610-G1dh/none-Hi-Kn010G3/L0261-k0 (antibody, V domains shown, one-arm) VH: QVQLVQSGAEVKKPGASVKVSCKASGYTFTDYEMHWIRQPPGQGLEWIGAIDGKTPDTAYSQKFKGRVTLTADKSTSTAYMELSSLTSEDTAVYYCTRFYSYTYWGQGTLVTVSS VL: DIVMTQSPLSLPVTPGEPASISCRSSQSPVHSNRNTYIQWYQQKPGQAPRLLIYKVSNRFSGVPDRFSGSGSGTDFTLKISRVEAEDVGVYYCTQGTQVPYTFGQGTKLEIK	0.0107 nM
H0610-G1dh/none-Hi-Kn010G3/L0259-k0 (antibody, V domains shown, one-arm) VH: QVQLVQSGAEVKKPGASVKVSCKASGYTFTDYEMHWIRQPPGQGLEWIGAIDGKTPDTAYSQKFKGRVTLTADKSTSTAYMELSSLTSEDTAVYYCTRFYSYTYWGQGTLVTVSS VL: DIVMTQSPLSLPVTPGEPASISCRSSQSPVHSNRNTYIHWYQQKPGQAPRLLIYKVSNRFSGVPDRFSGSGSGTDFTLKISRVEAEDVGVYYCTQGTQVPYTFGQGTKLEIK	0.334 nM

Would you kindly look at the next entry?
Name the reported Kd value associated with the binder GCH054-G1dh/none-Hi-Kn010G3/L0200-k0 (antibody, V domains shown, one-arm) VH: QVQLVQSGAEVKKPGASVTVSCKASGYTFTDYEMHWIRQPPGEGLEWIGAIDGETPDTAYSEKFKGRVTLTADKSTSTAYMELSSLTSEDTAVYYCTRFYSYTYWGQGTLVTVSS VL: DIVMTQSPLSLPVTPGEPASISCRPSQSPVHSNRNTYLHWYQQKPGQAPRLLIYKVSNRFSGVPDRFSGSGSGTDFTLKISRVEAEDVGVYYCGQGTQVPYTFGQGTKLEIK
1.18 nM

Where these numbers come from: patent US20250066503A1
